Data credit: patent US20090130114A1

Target: T1, human WISE (human, UniProt Q6X4U4 24-206)
T1 construct: Recombinant, made in E. coli or mammalian cells; biotinylated in the ELISAs, amine-coupled to CM5 in Biacore; also called huWise; huWISE
T1 sequence: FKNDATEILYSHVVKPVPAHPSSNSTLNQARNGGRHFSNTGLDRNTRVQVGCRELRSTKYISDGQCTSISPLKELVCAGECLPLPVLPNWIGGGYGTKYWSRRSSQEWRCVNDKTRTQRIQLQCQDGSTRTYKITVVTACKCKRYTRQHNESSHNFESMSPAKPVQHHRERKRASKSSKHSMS
Assay: assay not specified (IgG2 from transient transfection)

Binder	binding result
light chain of SEQ ID NO: 120 paired with the heavy chain of SEQ ID NO: 24 (antibody, human IgG2, kappa, V domains shown) VH: QVQLVQSGAEVKKPGSSVKVSCKASGGTFSSTYISWVRQAPGQGLEWMGWIYAGTGGTRYNRKFTGRVTITADESTSTAYMELSSLRSEDTAVYYCAREGVDGWFTYWGQGTLVTVSS VL: DIQMTQSPATLSLSPGERATLSCRASRSVSSNLAWYQQKPGRAPRLLMFGASTRATGVPARFSGSGSGTEFTLTISSLQSEDVATYYCQHDNELPLTFGGGTKVELKR	binds
Ab-48 (antibody, human IgG2, kappa, V domains shown, Phage-derived human light chain with the humanized Ab-C IgG2 heavy chain) VH: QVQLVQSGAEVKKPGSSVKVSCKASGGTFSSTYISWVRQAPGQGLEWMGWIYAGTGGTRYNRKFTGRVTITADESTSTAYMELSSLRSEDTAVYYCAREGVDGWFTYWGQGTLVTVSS VL: DIQMTQSPSSLSASIGDRVTITCQASQDINNYLNWYQQKQGKAPKVLIFDASNLAAGVPSRFSGSGSGTDFTLTISSLQPEDIATYYCQQYDNLPLTFGQGTKVDNKR	binds
light chain of SEQ ID NO: 118 paired with the heavy chain of SEQ ID NO: 24 (antibody, human IgG2, kappa, V domains shown) VH: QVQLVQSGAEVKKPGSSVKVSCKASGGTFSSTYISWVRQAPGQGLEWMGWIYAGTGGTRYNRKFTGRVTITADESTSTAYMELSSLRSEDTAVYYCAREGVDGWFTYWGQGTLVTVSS VL: DIQMTQSPDSLSASVGDRITISCQASQDIDNYLNWYQQRSGKAPKLLIYDAYNLKAGVPSRFRGSRSGTDFFLTISSLQPEDFGTYYCLQQSSYPLTFGQGTKVEIKR	binds
